Attribution: patent US10722501B2

- MEASURED_ON: recombinant full-length human prolyl endopeptidase (PREP) (Homo sapiens, UniProt P48147)
- Construct: To recombinant full-length human prolyl endopeptidase (PREP, R&D-Systems, 4308-SE)
- Sequence (P48147 whole entry): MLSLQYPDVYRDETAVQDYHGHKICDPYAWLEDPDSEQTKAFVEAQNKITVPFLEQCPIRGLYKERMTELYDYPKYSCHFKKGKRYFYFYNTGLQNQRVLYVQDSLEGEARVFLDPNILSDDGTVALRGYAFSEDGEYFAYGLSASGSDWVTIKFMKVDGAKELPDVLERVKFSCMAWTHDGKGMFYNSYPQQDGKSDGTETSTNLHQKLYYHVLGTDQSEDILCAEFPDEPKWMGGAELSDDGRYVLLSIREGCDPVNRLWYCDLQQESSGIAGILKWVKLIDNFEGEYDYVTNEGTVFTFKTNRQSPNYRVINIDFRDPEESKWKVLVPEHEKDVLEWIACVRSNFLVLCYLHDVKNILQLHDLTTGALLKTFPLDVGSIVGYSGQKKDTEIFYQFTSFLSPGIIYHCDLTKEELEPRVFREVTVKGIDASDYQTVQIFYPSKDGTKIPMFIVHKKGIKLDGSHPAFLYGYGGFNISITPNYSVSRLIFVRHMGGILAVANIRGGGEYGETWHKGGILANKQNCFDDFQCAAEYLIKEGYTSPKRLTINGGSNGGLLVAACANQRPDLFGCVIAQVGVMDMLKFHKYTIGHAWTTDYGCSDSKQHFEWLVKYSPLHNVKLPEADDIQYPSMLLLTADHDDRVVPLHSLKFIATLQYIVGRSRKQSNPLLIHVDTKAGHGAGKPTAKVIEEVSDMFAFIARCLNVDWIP
- PROCEDURE_TEXT: Biochemical human prolyl endopeptidase (PREP) assay with fluorescently labelled substrate
- RUN_PARAMETERS: substrate Z-Gly-Pro-AMC 50 μM, 32° C., 60 min; some as mean values from multiple independent determinations
MEASURED_PROPERTY: pIC50
Note on units: pIC50 is unitless, being -log10 of a concentration expressed in mol/L.

Asked: Fill in reported pIC50 for this entry: O=C(C1CC(C(F)(F)F)Cc2nn(Cc3ccc(Cl)cn3)c(=O)n21)N1CC[C@H](F)C1 (mixture of isomers) [Example 314]
Given back: 8.85

Asked: Look up and state reported pIC50 for COc1ccc(Cn2nc3n(c2=O)C(C(=O)N2CCC(F)(F)C2)CCC3)cc1Cl (racemic)
Given back: 8.76

Asked: For `O=C([C@@H]1CCCc2nn(Cc3ccc(Cl)cn3)c(=O)n21)N1CC[C@H](F)C1` , write its pIC50.
Given back: 9.04
